- method: Cytotoxicity (CellTiter 96 AQueous)
- Type: cell-based
- study.conditions: human; 24 h; read-out: CC50
This listing pairs compounds with measured CC50.
Numeric only. Scale: µM

For reference, reported CC50 for CCCCC1CCCCCCc2[nH]c(C=C3N=C(c4ccc[nH]4)C=C3OC)cc21 (stereo not drawn) stands at 3.85

Item: CCC1(O)CC(OC2CC(N(C)C)C(O)C(C)O2)c2c(O)c3c(c(O)c2C1OC1CC(N(C)C)C(O)C(C)O1)C(=O)c1cccc(O)c1C3=O (stereo not drawn) | CC50: 0.724

---

- target.entity: IN-GCN2 interaction (6xHis-IN / GST-GCN2) (UniProt P04585+Q9P2K8)
- Sequence (Q9P2K8 192-1024, other chains not shown): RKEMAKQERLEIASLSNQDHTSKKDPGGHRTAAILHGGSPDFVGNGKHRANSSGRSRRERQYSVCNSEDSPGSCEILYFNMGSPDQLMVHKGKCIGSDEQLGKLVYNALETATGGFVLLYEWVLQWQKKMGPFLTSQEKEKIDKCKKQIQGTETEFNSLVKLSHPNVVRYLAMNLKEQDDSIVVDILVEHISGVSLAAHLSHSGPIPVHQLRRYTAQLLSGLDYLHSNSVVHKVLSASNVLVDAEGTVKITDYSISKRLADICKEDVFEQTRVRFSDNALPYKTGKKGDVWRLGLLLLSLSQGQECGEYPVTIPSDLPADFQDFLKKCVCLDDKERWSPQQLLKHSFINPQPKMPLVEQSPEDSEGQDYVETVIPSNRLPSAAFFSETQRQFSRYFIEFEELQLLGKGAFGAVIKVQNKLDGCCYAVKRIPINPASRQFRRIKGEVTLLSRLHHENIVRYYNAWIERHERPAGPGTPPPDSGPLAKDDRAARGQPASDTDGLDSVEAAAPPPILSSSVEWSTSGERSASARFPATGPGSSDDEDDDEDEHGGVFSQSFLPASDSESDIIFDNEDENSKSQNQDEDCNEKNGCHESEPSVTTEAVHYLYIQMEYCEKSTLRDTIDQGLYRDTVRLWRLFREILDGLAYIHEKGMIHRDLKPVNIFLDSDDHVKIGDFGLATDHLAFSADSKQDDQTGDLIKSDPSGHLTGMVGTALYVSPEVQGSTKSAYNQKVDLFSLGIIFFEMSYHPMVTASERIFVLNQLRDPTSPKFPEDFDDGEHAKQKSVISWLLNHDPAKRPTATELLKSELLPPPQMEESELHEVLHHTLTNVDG
- method: biochemical
- Assay type: binding, HIV-1 IN; human GCN2
- study.conditions: screen, single dose 100 µM, single replicate; residual AlphaLISA signal normalized to DMSO control
Would you mind labelling by IN-GCN2 interaction (%)? At or over 80% is t, under is f.

Consider the worked cases shown below.
| compound | group |
| --- | --- |
| CC1(C)[C@H](C(=O)O)CC[C@]1(C)C(=O)O | t |
| COc1ccc(/C=C/C(=O)c2c(OC)cc(OC)c(OC)c2O)cc1 | f |
| CC(C)[C@@H]1NC(=O)[C@H](C)OC(=O)[C@@H](C(C)C)NC(=O)[C@@H](C(C)C)OC(=O)[C@H](C(C)C)NC(=O)[C@H](C)OC(=O)[C@@H](C(C)C)NC(=O)[C@@H](C(C)C)OC(=O)[C@H](C(C)C)NC(=O)[C@H](C)OC(=O)[C@@H](C(C)C)NC(=O)[C@@H](C(C)C)OC1=O | f |
| COc1c2c(c3c(c1OC)c(=O)c1ccccc1n3C)OCO2 | t |
| CCCCCC1=C/C(=C/c2[nH]c(-c3ccc[nH]3)cc2OC)N=C1C | f |

Here is another compound to look at.
Request: # bool: IN-GCN2 interaction (%) of COc1cc2c3c(c1OC)-c1cc4c(cc1C[C@@H]3N(C)CC2)OCO4 >= 80%
Result: f
